Recorded values, source PubChem BioAssay (NCI).

Test system: M14 melanoma
ASSAY PROCEDURE: NCI-60 one-dose screen, 48 h (100 = growth as untreated, 0 = no growth, -100 = all killed)
CONDITIONS USED: 10 µM unless noted
This is part of a sample that, as a whole, favours compounds with a hit. Of some 83,000 tested, about 20% had one in any assay.
Outcome: satisfied for growth of at least 80%; not satisfied for anything lower.

Sample answers from the record:
{"COMPOUND": "CCCCCc1nc2c(c3c1CCCC3)CCCC2", "QUALITATIVE LABEL": "satisfied"}
{"COMPOUND": "COCN1CCC2N(COC)CCC3N(COC)CCC1N23 (stereo unspecified)", "QUALITATIVE LABEL": "satisfied"}
{"COMPOUND": "O=C(O)C1CCC(=O)N1C(=O)OCc1ccccc1 (stereo unspecified)", "QUALITATIVE LABEL": "satisfied"}
{"COMPOUND": "COc1cccc(C(=O)NCCCNc2cc(-c3cn(-c4ccccc4)nc3-c3cccc(OC)c3)ccn2)c1", "QUALITATIVE LABEL": "not satisfied"}

Does the compound `Cc1c(O)cc(-c2cnc(N/N=C\c3ccc(Cl)cc3)s2)c(O)c1C` have recorded growth that is 80% or more? satisfied

Does the compound CCOP(=O)(OCC)C1CP(=O)(c2ccccc2)CC(C)=C1Cl (stereo unspecified) have recorded growth that is 80% or more? not satisfied

Does the compound `Cc1cc(Cl)ccc1Nc1nc(C(F)(F)F)ccc1C(=O)N/N=C/c1ccc(N(C)C)cc1` have recorded growth that is 80% or more? not satisfied

Does the compound `Nc1cc2c3c(cccc3c1)C(=O)N(CCN1CCCC1)C2=O` have recorded growth that is 80% or more? not satisfied

Does the compound `C=C1C(=O)O[C@H]2[C@H]1CC/C(COC(=O)C(=O)c1cn(C)c3ccc(OC)cc13)=C\CC[C@@]1(C)O[C@@H]21` have recorded growth that is 80% or more? not satisfied

Does the compound COc1cc2c(cc1-c1c(C)noc1C)ncc1nc(C3CCCCC3)n(C3CCC(OC(F)F)CC3)c12 (stereo unspecified) have recorded growth that is 80% or more? not satisfied

Does the compound `O=c1[nH]c2ccccc2n1C1CCN(CCOc2ccccc2)CC1` have recorded growth that is 80% or more? satisfied

Does the compound `C=CCSc1nc2ccccc2cc1/C=N/O` have recorded growth that is 80% or more? satisfied

Does the compound CC1(c2ccccc2)NC(=O)N(NC(=O)CSc2nc(-c3cccs3)nc3ccccc23)C1=O (stereo unspecified) have recorded growth that is 80% or more? satisfied

Does the compound `O=Cc1ccc(O)c2ncccc12` have recorded growth that is 80% or more? not satisfied

Does the compound `COC(=O)[C@]12CC[C@@H](C)[C@H](C)[C@@H]1C1=CC[C@@H]3[C@@]4(C)C(C=O)=C[C@@](C)(COC(=O)/C=C/c5ccccc5)[C@@H]4[C@H](O)C[C@@]3(C)[C@]1(C)CC2` have recorded growth that is 80% or more? not satisfied

Does the compound CCCCN(CCCC)CC(C)(C)C(O)c1ccc(OC)c2ccccc12 (stereo unspecified) have recorded growth that is 80% or more? not satisfied

Does the compound `Cc1cccc(Cc2cnc(NC(=O)c3ccc4nnsc4c3)s2)c1` have recorded growth that is 80% or more? not satisfied

Does the compound `Cc1cccc(NC(=O)N/C(N)=N/c2nc(C)c(C)s2)c1` have recorded growth that is 80% or more? not satisfied

Does the compound `Cc1ccc(S(=O)(=O)N/N=C\c2cc(Cl)ccc2O)cc1` have recorded growth that is 80% or more? satisfied

Does the compound `O=C(/C=C/c1ccc(Cl)nc1)c1ccc(Cl)cc1Cl` have recorded growth that is 80% or more? satisfied

----------
System: HOP-92 NSCLC
ASSAY PROCEDURE: NCI-60 one-dose screen, 48 h (100 = growth as untreated, 0 = no growth, -100 = all killed)
CONDITIONS USED: 10 µM unless noted
This is part of a sample that, as a whole, favours compounds with a hit. Of some 83,000 tested, about 20% had one in any assay.
# growth per entry
Write it as a number; the unit % goes unstated.

The cases that follow already have their growth on record.
{"SMILES REPRESENTATION": "Cc1ccc(Cc2cnc(NC(=O)c3ccc4noc(-c5ccccc5)c4c3)s2)cc1", "ASSAY TARGET": "HOP-92 NSCLC", "growth, %": 103}
{"SMILES REPRESENTATION": "CC1=NOC(=O)/C1=C\\c1ccc(O)cc1", "ASSAY TARGET": "HOP-92 NSCLC", "growth, %": 101}

Which growth reading was recorded for the compound `O=C1Nc2ccccc2/C1=C/c1cn(C(=O)c2c(Cl)cccc2Cl)c2ccccc12` ? 49.1

Which growth reading was recorded for the compound `O=C(COc1ccc(/C=C2\Oc3ccccc3C2=O)cc1)Nc1nc2c(s1)CCCC2` ? -90.1

Which growth reading was recorded for the compound `CCCCCCCCCCCCCCCCCCOc1ccc(CC(=O)OCC[N+]2(C)CCCC2)cc1` ? 110

----------
System: T-47D breast
ASSAY PROCEDURE: NCI-60 one-dose screen, 48 h
CONDITIONS USED: 10 µM unless noted
This is part of a sample that, as a whole, favours compounds with a hit. Of some 83,000 tested, about 20% had one in any assay. The source made the active and inactive calls. The calls were made as follows: active = growth percent below 10; inactive = the rest.
Just give me one of these, please: T (active), F (inactive)

{"COMPOUND": "COc1ccc(N=Nc2ccc(O)c(=O)cc2)cc1", "QUALITATIVE LABEL": "T"}
{"COMPOUND": "COc1cc(N=Nc2ccc(N)cc2)c(OC)cc1N=Nc1ccccc1.[Cl][Zn][Cl]", "QUALITATIVE LABEL": "F"}
{"COMPOUND": "COC(=O)[C@]12CC[C@@H](C)[C@H](C)[C@@H]1C1=CC[C@@H]3[C@@]4(C)C(C=O)=C[C@@](C)(COC(=O)c5ccco5)[C@@H]4C(=O)C[C@@]3(C)[C@]1(C)CC2", "QUALITATIVE LABEL": "T"}
{"COMPOUND": "CC(C)(C)C(CCc1ccc(Cl)cc1)N1CCN(C2CCCCC2)CC1 (centres undefined)", "QUALITATIVE LABEL": "F"}
{"COMPOUND": "O=C1CC(N2C(=O)/C(=C/C(Cl)=C\\c3ccc([N+](=O)[O-])cc3)SC2=S)C(=O)N1c1ccc(O)cc1 (centres undefined)", "QUALITATIVE LABEL": "F"}

Lab log entry: `CNC(=O)CCN1CCN(CC/C=C2\c3ccccc3Sc3ccc(Cl)cc32)CC1` — outcome as called in the assay? F

Lab log entry: `Cn1c(I)c(C#C[Si](C)(C)C)c(=O)n(C(=O)c2ccccc2)c1=O` — outcome as called in the assay? F

Lab log entry: Cn1c2c(c3ccc(Cl)c(Cl)c31)C(C#N)C1(CCNCC1)NC2=O (centres undefined) — outcome as called in the assay? F

Lab log entry: `Cc1ccc(Cl)c(NS(=O)(=O)c2ccc(-c3cnc(C4CC4)o3)cc2)c1` — outcome as called in the assay? F

----------
Tested on: M14 melanoma
ASSAY PROCEDURE: NCI-60 one-dose screen, 48 h (100 = growth as untreated, 0 = no growth, -100 = all killed)
CONDITIONS USED: 10 µM unless noted
This is part of a sample that, as a whole, favours compounds with a hit. Of some 83,000 tested, about 20% had one in any assay.
Outcome: Y for growth of at least -20%; N for anything lower.

Sample answers from the record:
{"SMILES REPRESENTATION": "C=C(C)[C@@H]1CC[C@]2(C(=O)NC3CCCCC3)CC[C@]3(C)[C@H](CC[C@@H]4[C@@]5(C)CCCNC(C)(C)[C@@H]5CC[C@]43C)[C@@H]12", "QUALITATIVE LABEL": "N"}
{"SMILES REPRESENTATION": "C[n+]1cc2cc(C(N)=O)[nH]c3c(=N)c(Cl)c(N)c1c23", "QUALITATIVE LABEL": "Y"}
{"SMILES REPRESENTATION": "O=c1[nH]ccc2nc(N3CCC(O)CC3)nc(Nc3ccc(N4CCOCC4)cc3)c12", "QUALITATIVE LABEL": "Y"}
{"SMILES REPRESENTATION": "COc1ccc2nc(NNC(=O)c3cnccn3)c3cccn3c2c1", "QUALITATIVE LABEL": "N"}
{"SMILES REPRESENTATION": "NCCCNc1nc2ccccc2c2c(=O)c3cccc(Cl)c3sc12", "QUALITATIVE LABEL": "N"}
{"SMILES REPRESENTATION": "O=C(Nc1ccc(Nc2ccncc2)cc1)c1ccc(C(=O)Nc2ccc(Nc3ccncc3)cc2)cc1", "QUALITATIVE LABEL": "Y"}

Does the compound `COc1cc(N=Nc2cc(Cc3ccc(N(C)C)cc3)c(N)cc2N(C)C)c2ncccc2c1` have recorded growth that is -20% or more? Y

Does the compound `N#Cc1nc2c(S(=O)(=O)c3ccc(Cl)cc3)c(N)n(Nc3cccc(Cl)c3)c2nc1C#N` have recorded growth that is -20% or more? Y

Does the compound `N#C/C(=C\c1ccc(Br)cc1)n1nnc2cc(F)c(F)cc21` have recorded growth that is -20% or more? Y

Does the compound `O=C(/C=C/c1c(Cl)nc2sccn12)c1nccs1` have recorded growth that is -20% or more? Y
